assay: in vitro; type: cell-based; conditions: human
endpoint-name: CC50

INSERT INTO results (compound, endpoint_name, observed_value) VALUES
  ('CC(C)C(=O)OCC(=O)[C@@]12O[C@H](C3CCCCC3)O[C@@H]1C[C@H]1[C@@H]3CCC4=CC(=O)C=C[C@]4(C)[C@H]3[C@@H](O)C[C@@]12C [Cic, Ciclesonide]', 'CC50', '> 30 µM');

Query: Can you share its CC50? I mean this compound: C[C@]12C=CC(=O)C=C1CC[C@@H]1[C@@H]2[C@@H](O)C[C@@]2(C)[C@H]1C[C@H]1O[C@@H](C3CCCCC3)O[C@]12C(=O)CO [Cic2, desisobutyryl ciclesonide]
Response: > 30 µM
